# target-or-system: human renin (Homo sapiens, UniProt P00797)
# Sequence (P00797 67-406): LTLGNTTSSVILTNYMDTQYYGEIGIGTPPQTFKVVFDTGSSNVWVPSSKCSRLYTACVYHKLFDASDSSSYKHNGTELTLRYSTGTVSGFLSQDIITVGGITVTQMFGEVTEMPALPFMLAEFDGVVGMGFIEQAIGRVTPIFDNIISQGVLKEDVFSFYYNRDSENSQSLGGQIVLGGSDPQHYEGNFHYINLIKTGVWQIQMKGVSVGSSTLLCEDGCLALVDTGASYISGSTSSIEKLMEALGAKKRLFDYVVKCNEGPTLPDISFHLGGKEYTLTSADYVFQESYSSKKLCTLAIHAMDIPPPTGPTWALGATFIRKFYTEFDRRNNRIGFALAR
# procedure-text: Inhibition of renin activity (human renin with sheep angiotensinogen, assay of remaining angiotensin I)
# Type: biochemical
# setup-conditions: 1 x 10 ^6M of the test compound, phosphate buffer pH 7.3, 10 minutes at 37°C, mean of 3 or 4 experiments
# Method: The ability of various compounds of the invention to inhibit the activity of renin was determined according to the following method, which follows essentially the procedure of Kokubu et al. [Hypertension, 5, 191-197 (1983)]. Specifically, each test compound was dissolved in 60% v/v aqueous ethanol. Human renin activity in the presence and absence of each compound was measured using sheep angiotensinogen. […]
observed-property: inhibition at 1 µM (%)

compound	unit-symbol	inhibition at 1 µM
CCCCCC(NC(=O)C(Cc1cccc2ccccc12)Cc1cccc2ccccc12)C(=O)N[C@@H](CC(C)C)[C@@H](O)CC(=O)NCC(C)CC (stereo partly shown)	%	99
CCOCCNC(=O)C[C@H](O)[C@H](CC(C)C)NC(=O)[C@H](CC(C)C)NC(=O)C(Cc1cccc2ccccc12)Cc1cccc2ccccc12	%	99
CC[C@H](C)[C@@H](CO)NC(=O)C[C@H](O)[C@H](CC(C)C)NC(=O)[C@H](CCC(N)=O)NC(=O)C(Cc1cccc2ccccc12)Cc1cccc2ccccc12	%	93
CC[C@H](C)CNC(=O)C[C@H](O)[C@H](CC(C)C)NC(=O)[C@H](Cc1c[nH]cn1)NC(=O)C(Cc1cccc2ccccc12)Cc1cccc2ccccc12	%	98.2
CCCCCCCC(NC(=O)C(Cc1cccc2ccccc12)Cc1cccc2ccccc12)C(=O)N[C@@H](CC(C)C)[C@@H](O)CC(=O)N[C@H](CO)[C@@H](C)CC (stereo partly shown)	%	99
CC[C@H](C)[C@@H](CO)NC(=O)C[C@H](O)[C@H](CC(C)C)NC(=O)[C@H](CCC(=O)O)NC(=O)C(Cc1cccc2ccccc12)Cc1cccc2ccccc12	%	92
CC[C@H](C)[C@@H](CO)NC(=O)C[C@H](O)[C@H](CC(C)C)NC(=O)[C@H](CCSC)NC(=O)C(Cc1cccc2ccccc12)Cc1cccc2ccccc12	%	93.5

Source: patent EP0186977A2
